molecular target: KCNJ5^G151R (Homo sapiens, UniProt P48544, G151R); construct: expressed in transfected cells; experiment: cell-based; assay type: cell-based; conditions: HEK293, 72 h; 10 μM; mean of primary screen and hit pick; read-out: mean % effect
Sequence (P48544 whole entry G151R): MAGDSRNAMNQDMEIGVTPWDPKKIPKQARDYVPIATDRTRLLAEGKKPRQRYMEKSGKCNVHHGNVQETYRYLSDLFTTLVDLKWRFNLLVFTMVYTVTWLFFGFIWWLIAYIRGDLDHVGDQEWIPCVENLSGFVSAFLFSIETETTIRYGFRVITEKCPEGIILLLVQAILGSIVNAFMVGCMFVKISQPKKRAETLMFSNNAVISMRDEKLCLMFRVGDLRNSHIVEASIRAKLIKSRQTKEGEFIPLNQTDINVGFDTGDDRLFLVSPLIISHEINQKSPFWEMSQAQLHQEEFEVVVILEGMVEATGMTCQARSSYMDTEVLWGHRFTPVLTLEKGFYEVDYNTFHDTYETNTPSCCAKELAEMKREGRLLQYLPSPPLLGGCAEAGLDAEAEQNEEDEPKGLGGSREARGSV
Counter-ions that a name gives are not always drawn.
Criterion: viability at 10 µM strictly less than 70%. Met: true. Not met: false.

Would you please look over these solved cases?
INSERT INTO results (compound, assayedtarget, labelvalue) VALUES
  ('CCCC(C(=O)OCCN(CC)CC)(c1ccccc1)c1ccccc1 [YU226705, Proadifen HCl]', 'KCNJ5^G151R (Homo sapiens, UniProt P48544, G151R)', 'true'),
  ('CN(C)C(=O)C(CCN1CCC(O)(c2ccc(Cl)cc2)CC1)(c1ccccc1)c1ccccc1 [YU224113, Loperamide-HCl]', 'KCNJ5^G151R (Homo sapiens, UniProt P48544, G151R)', 'true'),
  ('Cc1c(O)cccc1C(=O)N[C@@H](CSc1ccccc1)[C@H](O)CN1C[C@H]2CCCC[C@H]2C[C@H]1C(=O)NC(C)(C)C (racemic) [YU040261, Nelfinavir mesylate]', 'KCNJ5^G151R (Homo sapiens, UniProt P48544, G151R)', 'true'),
  ('C[C@]12CC[C@@H]3c4ccc(O)cc4C[C@@H](CCCCCCCCC[S+]([O-])CCCC(F)(F)C(F)(F)F)[C@H]3[C@@H]1CC[C@@H]2O (some centres unmarked)', 'KCNJ5^G151R (Homo sapiens, UniProt P48544, G151R)', 'true'),
  ('CC[C@H]1OC(=O)[C@H](C)[C@@H](O[C@H]2C[C@@](C)(OC)[C@@H](O)[C@H](C)O2)[C@H](C)[C@@H](O[C@@H]2O[C@H](C)C[C@H](N(C)C)[C@H]2O)[C@](C)(O)C[C@@H](C)C(=O)[C@H](C)[C@@H](O)[C@]1(C)O', 'KCNJ5^G151R (Homo sapiens, UniProt P48544, G151R)', 'false');

Query string: Please indicate whether the reported viability at 10 µM of `c1cncnc1` is strictly below 70%.
Result string: false

Query string: Confirm or reject: viability at 10 µM of `CC[C@H]1OC(=O)[C@H](C)[C@@H](O[C@H]2C[C@@](C)(OC)[C@@H](O)[C@H](C)O2)[C@H](C)[C@@H](O[C@@H]2O[C@H](C)C[C@H](N(C)C)[C@H]2O)[C@](C)(O)C[C@@H](C)/C(=N\OCOCCOC)[C@H](C)[C@@H](O)[C@]1(C)O` lies strictly below 70%
Result string: false

Cited source for all entries: patent US11484543B2
